Settings: in isopropanol, 298.2 K
observed property: solubility (mole fraction)
Kindly provide the number alone.

Given CC(=O)Oc1ccc(C2CC(=O)c3c(OC(C)=O)cc(OC(C)=O)cc3O2)cc1 (stereo unspecified) , state its recorded solubility (mole fraction).
0.000667

###

Details: in isopropanol, 278.2 K
observed property: solubility (mole fraction)
Kindly provide the number alone.

Given CC(=O)Oc1ccc(C2CC(=O)c3c(OC(C)=O)cc(OC(C)=O)cc3O2)cc1 (stereo unspecified) , state its recorded solubility (mole fraction).
0.000289

###

Conditions: in THF, 308.2 K
observed property: solubility (mole fraction)
Kindly provide the number alone.

Given CC(=O)Oc1ccc(C2CC(=O)c3c(OC(C)=O)cc(OC(C)=O)cc3O2)cc1 (stereo unspecified) , state its recorded solubility (mole fraction).
0.0732
